procedure_details: Stability in human liver microsomes assessed as compound remaining measured upto 45 mins in presence of NADPH by LC-MS analysis
Type: ADME, Microsome
protocol_conditions: read-out: Stability
observed_property: remaining at 0.75 h

record_smiles: O=C(c1ccco1)N1CCN(C2CCN(c3ccccc3)CC2)CC1
meas_value: 62%

###

procedure_details: AUC(0 to t) in Sprague-Dawley rat at 20 mg/kg, IG measured upto 12 hrs by LC-MS/MS analysis
Assay type: ADME, organism-based
protocol_conditions: in vivo, po

record_smiles: O=C(c1ccco1)N1CCN(C2CCN(c3ccccc3)CC2)CC1
AUC(0-t) at 12 h (µg·h/mL): 3.01
